target_system: T1, human sortilin stably expressed on HEK 293 cells (HEK-SORT1 cells) (human, UniProt Q99523 78-831)
T1 sequence (looked up): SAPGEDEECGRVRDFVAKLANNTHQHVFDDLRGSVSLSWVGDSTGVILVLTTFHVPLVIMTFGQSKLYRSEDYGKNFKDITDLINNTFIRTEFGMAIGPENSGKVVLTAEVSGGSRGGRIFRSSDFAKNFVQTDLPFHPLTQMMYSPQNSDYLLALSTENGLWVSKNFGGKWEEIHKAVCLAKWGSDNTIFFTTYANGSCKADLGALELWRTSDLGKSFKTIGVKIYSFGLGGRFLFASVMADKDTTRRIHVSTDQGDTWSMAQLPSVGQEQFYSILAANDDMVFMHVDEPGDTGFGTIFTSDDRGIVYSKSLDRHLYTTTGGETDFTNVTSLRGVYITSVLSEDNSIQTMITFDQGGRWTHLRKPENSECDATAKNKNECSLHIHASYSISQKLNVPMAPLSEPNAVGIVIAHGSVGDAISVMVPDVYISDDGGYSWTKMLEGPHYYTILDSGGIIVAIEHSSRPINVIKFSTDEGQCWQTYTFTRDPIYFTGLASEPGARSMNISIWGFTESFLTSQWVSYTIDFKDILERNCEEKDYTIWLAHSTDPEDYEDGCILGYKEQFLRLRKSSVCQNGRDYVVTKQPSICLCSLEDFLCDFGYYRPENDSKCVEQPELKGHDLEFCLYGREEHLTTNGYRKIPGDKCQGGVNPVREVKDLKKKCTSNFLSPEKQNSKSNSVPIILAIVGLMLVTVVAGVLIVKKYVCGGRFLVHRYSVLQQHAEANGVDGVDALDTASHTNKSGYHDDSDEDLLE
test_details: cell-based or functional assay
Ends that are not written are not given here.
assay_metric: Mean Fluorescence Intensity (MFI), uptake 37C-4C, at 3000 nM

>  <binder>
KPPPAGSSPGLYENKPRRPYIL (not fully specified (residue 1); also: X side chain clicked via BCN (triazole) and 6-aminohexanol linker to 5' end of oligonucleotide CCAGGCTGGTTATGACTCAG (MOE, 3'-Cy3))

>  <reported_value>
3380 MFI

$$$$
>  <binder>
KPAPSGPSPGLYENKPRRPYIL (not fully specified (residue 1); also: X side chain clicked via BCN (triazole) and 6-aminohexanol linker to 5' end of oligonucleotide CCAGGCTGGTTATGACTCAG (MOE, 3'-Cy3))

>  <reported_value>
3390 MFI

$$$$
>  <binder>
KAGMSGASAGLYENKPRRPYIL (not fully specified (residue 1); also: X side chain clicked via BCN (triazole) and 6-aminohexanol linker to 5' end of oligonucleotide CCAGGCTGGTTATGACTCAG (MOE, 3'-Cy3))

>  <reported_value>
2880 MFI

$$$$
